System: 922993-354-T-J3-PDC complex spheroids, viability, % test/control
Assay: Anticancer human tumor 922993-354-T-J3-PDC patient-derived endometrial carcinoma cell line growth inhibition [CLK]; active = viability on the fitted dose curve at most 10% of control; inactive = the rest
Settings: second compound 1 µM; first compound 3.16 µM
Assign a class; possible classes are active, inactive

Here are 6 compounds together with their reported answers.
CC(Nc1ccc2c(c1)OCCn1cc(N3C(=O)OCC3C(F)F)nc1-2)C(N)=O (stereo unspecified) + CNC(=O)c1ccc(Nc2nc(OC3CCCC3)c3c(-c4ccc5nc(C)oc5c4)c[nH]c3n2)c(OC)c1	inactive
COC1C=CCC(C)C(C)S(=O)(=O)NC(=O)c2ccc3c(c2)N(CC2CCC21)CC1(CCCc2cc(Cl)ccc21)CO3 (stereo unspecified) + CN1CCN(c2cc(C(=O)Nc3cc4cc(-c5cnn(C)c5)ccc4cn3)ccn2)CC1	active
CC(CO)NC(=O)c1cc(-c2ccc(Cl)cc2)nn(-c2cnn(C)c2)c1=O (stereo unspecified) + CNC(=O)c1ccc(Nc2nc(OC3CCCC3)c3c(-c4ccc5nc(C)oc5c4)c[nH]c3n2)c(OC)c1	inactive
C#Cc1c(F)ccc2cc(O)cc(-c3ncc4c(N5CC6CCC(C5)N6)nc(OCC56CCCN5CC(F)C6)nc4c3F)c12 (stereo unspecified) + CNC(=O)c1ccc(Nc2nc(OC3CCCC3)c3c(-c4ccc5nc(C)oc5c4)c[nH]c3n2)c(OC)c1	inactive
O=c1[nH]cc(F)c(=O)[nH]1 + CNC(=O)c1ccc(Nc2nc(OC3CCCC3)c3c(-c4ccc5nc(C)oc5c4)c[nH]c3n2)c(OC)c1	inactive
Nc1ccn(C2OC(CO)C(O)C2(F)F)c(=O)n1 (stereo unspecified) + CNC(=O)c1ccc(Nc2nc(OC3CCCC3)c3c(-c4ccc5nc(C)oc5c4)c[nH]c3n2)c(OC)c1	inactive

Ask | What outcome does the record of this test show for CC(CO)NC(=O)c1cc(-c2ccc(Cl)cc2)nn(-c2cnn(C)c2)c1=O (stereo unspecified) + CN1CCN(c2cc(C(=O)Nc3cc4cc(-c5cnn(C)c5)ccc4cn3)ccn2)CC1 ?
Reply | active

Ask | What outcome does the record of this test show for C#Cc1c(F)ccc2cc(O)cc(-c3ncc4c(N5CC6CCC(C5)N6)nc(OCC56CCCN5CC(F)C6)nc4c3F)c12 (stereo unspecified) + CN1CCN(c2cc(C(=O)Nc3cc4cc(-c5cnn(C)c5)ccc4cn3)ccn2)CC1 ?
Reply | active

Ask | What outcome does the record of this test show for Nc1ccn(C2OC(CO)C(O)C2(F)F)c(=O)n1 (stereo unspecified) + CN1CCN(c2cc(C(=O)Nc3cc4cc(-c5cnn(C)c5)ccc4cn3)ccn2)CC1 ?
Reply | active

Ask | What outcome does the record of this test show for CCCS(=O)(=O)Nc1ccc(F)c(C(=O)c2c[nH]c3ncc(-c4ccc(Cl)cc4)cc23)c1F + CNC(=O)c1ccc(Nc2nc(OC3CCCC3)c3c(-c4ccc5nc(C)oc5c4)c[nH]c3n2)c(OC)c1 ?
Reply | inactive

Ask | What outcome does the record of this test show for COC1C=CCC(C)C(C)S(=O)(=O)NC(=O)c2ccc3c(c2)N(CC2CCC21)CC1(CCCc2cc(Cl)ccc21)CO3 (stereo unspecified) + CNC(=O)c1ccc(Nc2nc(OC3CCCC3)c3c(-c4ccc5nc(C)oc5c4)c[nH]c3n2)c(OC)c1 ?
Reply | inactive

###

System: 922993-354-T-J3-PDC complex spheroids, viability, % test/control
Assay: Anticancer human tumor 922993-354-T-J3-PDC cell line growth inhibition [CLK];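 note: spheroids exposed to the agents for 7 days before readout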
Conditions: curve of first compound; second compound 3.16 µM
pIC50: −log10 of the molar value.
Recorded pIC50 for the following molecules

C=CC(=O)N1CCN(c2nc(=O)n(-c3c(C)ccnc3C(C)C)c3nc(-c4c(O)cccc4F)c(F)cc23)C(C)C1 (stereo not given) + CN1CCN(c2cc(C(=O)Nc3cc4cc(-c5cnn(C)c5)ccc4cn3)ccn2)CC1	> 7.50
CCc1c2c(nc3ccc(O)cc13)-c1cc3c(c(=O)n1C2)COC(=O)[C@]3(O)CC + CN1CCN(c2cc(C(=O)Nc3cc4cc(-c5cnn(C)c5)ccc4cn3)ccn2)CC1	> 8.50
COC1C=CCC(C)C(C)S(=O)(=O)NC(=O)c2ccc3c(c2)N(CC2CCC21)CC1(CCCc2cc(Cl)ccc21)CO3 (stereo not given) + CN1CCN(c2cc(C(=O)Nc3cc4cc(-c5cnn(C)c5)ccc4cn3)ccn2)CC1	> 7.50
CC1COCCN1c1cc(C2(S(C)(=N)=O)CC2)nc(-c2ccnc3[nH]ccc23)n1 (stereo not given) + CNC(=O)c1ccc(Nc2nc(OC3CCCC3)c3c(-c4ccc5nc(C)oc5c4)c[nH]c3n2)c(OC)c1	> 7.50
O=C(c1cc(Cc2n[nH]c(=O)c3ccccc23)ccc1F)N1CCN(C(=O)C2CC2)CC1 + CNC(=O)c1ccc(Nc2nc(OC3CCCC3)c3c(-c4ccc5nc(C)oc5c4)c[nH]c3n2)c(OC)c1	> 7.50
Cn1ncnc1[C@H]1c2n[nH]c(=O)c3cc(F)cc(c23)N[C@@H]1c1ccc(F)cc1 + CN1CCN(c2cc(C(=O)Nc3cc4cc(-c5cnn(C)c5)ccc4cn3)ccn2)CC1	> 9.50
CCc1c2c(nc3ccc(O)cc13)-c1cc3c(c(=O)n1C2)COC(=O)[C@]3(O)CC + CNC(=O)c1ccc(Nc2nc(OC3CCCC3)c3c(-c4ccc5nc(C)oc5c4)c[nH]c3n2)c(OC)c1	> 8.50
CC(Nc1ccc2c(c1)OCCn1cc(N3C(=O)OCC3C(F)F)nc1-2)C(N)=O (stereo not given) + CN1CCN(c2cc(C(=O)Nc3cc4cc(-c5cnn(C)c5)ccc4cn3)ccn2)CC1	> 7.50
O=c1[nH]cc(F)c(=O)[nH]1 + CN1CCN(c2cc(C(=O)Nc3cc4cc(-c5cnn(C)c5)ccc4cn3)ccn2)CC1	> 7.50

Ask | I have this molecule here, CC(=O)O[C@H]1C(=O)[C@@]2(C)[C@H]([C@H](OC(=O)c3ccccc3)[C@]3(O)C[C@H](OC(=O)[C@H](O)[C@@H](NC(=O)c4ccccc4)c4ccccc4)C(C)=C1C3(C)C)[C@]1(OC(C)=O)CO[C@@H]1C[C@@H]2O + CNC(=O)c1ccc(Nc2nc(OC3CCCC3)c3c(-c4ccc5nc(C)oc5c4)c[nH]c3n2)c(OC)c1 , and I need its recorded pIC50.
Reply | > 7.50
